Provide the recorded IC50 for the entries that follow.
# Experimental Target: calcium calmodulin dependent protein kinase
# Method Notes: Calcium Calmodulin Dependent Protein Kinase Assay (CAM)
# Run Parameters: Table 1
Counter-ions that a name gives are not always drawn.
Kindly provide the numeric value in µM only, without the unit symbol.

[ask] Could you share which IC50 value was measured for NC1CCCn2cc(c3ccccc32)C2=C(C(=O)NC2=O)c2cn(c3ccccc23)CCC1 ?
[reply] 39

[ask] Could you share which IC50 value was measured for CC(=O)NC1CCCn2cc(c3ccccc32)C2=C(C(=O)NC2=O)c2cn(c3ccccc23)CCC1 ?
[reply] 63

[ask] Could you share which IC50 value was measured for O=C1NC(=O)C2=C1c1cn(c3ccccc13)CCC[C@@H](CN1CCCC1)CCn1cc2c2ccccc21 [Example 36r, hydrochloride salt] ?
[reply] 7.1

[ask] Could you share which IC50 value was measured for NC[C@@H]1CCn2cc(c3ccccc32)C2=C(C(=O)NC2=O)c2cn(c3ccccc23)CCO1 ?
[reply] 2.5

[ask] Could you share which IC50 value was measured for O=C1NC(=O)C2=C1c1cn(c3ccccc13)CCCC(CN(Cc1ccccc1)Cc1ccccc1)CCn1cc2c2ccccc21 (stereo not shown) [Example 35, trifluoroacetate salt] ?
[reply] 82

[ask] Could you share which IC50 value was measured for O=C1NC(=O)C2=C1c1cn(c3ccccc13)CCCC(CNCc1ccccc1)CCn1cc2c2ccccc21 (stereo not shown) [Example 34, trifluoroacetate salt] ?
[reply] 4

[ask] Could you share which IC50 value was measured for CN(C)CC1CCn2cc(c3ccccc32)C2=C(C(=O)NC2=O)c2cn(c3ccccc23)CCO1 (stereo not shown) [Example 5, HCl Salt] ?
[reply] 4

* * *

# Experimental Target: calcium calmodulin dependent protein kinase
# Method Notes: Calcium Calmodulin Dependent Protein Kinase Assay (CAM)
# Run Parameters: Table 1
Counter-ions that a name gives are not always drawn.
Provide the recorded pIC50 for the entries that follow.
# reply with the number alone; pIC50 is -log10 of concentration in mol/L

[ask] Could you share which pIC50 value was measured for CN(C)C[C@H]1CCn2cc(c3ccccc32)C2=C(C(=O)NC2=O)c2cn(c3ccccc23)CCO1 [Example 5r, Hydrochloride Salt] ?
[reply] 5.30

[ask] Could you share which pIC50 value was measured for O=C1NC(=O)C2=C1c1cn(c3ccccc13)CCCOC(CN1CCCC1)CCn1cc2c2ccccc21 (stereo not drawn) ?
[reply] 4.03

[ask] Could you share which pIC50 value was measured for NC[C@H]1CCn2cc(c3ccccc32)C2=C(C(=O)NC2=O)c2cn(c3ccccc23)CCO1 ?
[reply] 6.16

[ask] Could you share which pIC50 value was measured for CN(C)CC1CCCn2cc(c3ccccc32)C2=C(C(=O)NC2=O)c2cn(c3ccccc23)CC1 (stereo not drawn) ?
[reply] 5.30

[ask] Could you share which pIC50 value was measured for NCC1CCn2cc(c3ccccc32)C2=C(C(=O)NC2=O)c2cn(c3ccccc23)CCCO1 (stereo not drawn) ?
[reply] 4.59

[ask] Could you share which pIC50 value was measured for CN(C)C[C@@H]1CCCn2cc(c3ccccc32)C2=C(C(=O)NC2=O)c2cn(c3ccccc23)CC1 [Example 40r, hydrochloride salt] ?
[reply] 5.10

[ask] Could you share which pIC50 value was measured for COCC1CCCn2cc(c3ccccc32)C2=C(C(=O)NC2=O)c2cn(c3ccccc23)CC1 (stereo not drawn) ?
[reply] 5.30

[ask] Could you share which pIC50 value was measured for O=C1NC(=O)C2=C1c1cn(c3ccccc13)CCCCCn1cc2c2ccccc21 ?
[reply] 6.22

[ask] Could you share which pIC50 value was measured for CN(C)C[C@H]1CCCn2cc(c3ccccc32)C2=C(C(=O)NC2=O)c2cn(c3ccccc23)CC1 [Example 40s, hydrochloride salt] ?
[reply] 4.39

[ask] Could you share which pIC50 value was measured for CC(=O)OCC1CCCn2cc(c3ccccc32)C2=C(C(=O)NC2=O)c2cn(c3ccccc23)CC1 (stereo not drawn) ?
[reply] 5.05

[ask] Could you share which pIC50 value was measured for O=C1NC(=O)C2=C1c1cn(c3ccccc13)CCO[C@@H](CNCc1ccccc1)CCn1cc2c2ccccc21 [Example 18r] ?
[reply] 5.06

[ask] Could you share which pIC50 value was measured for CN(C)C[C@@H]1CCn2cc(c3ccccc32)C2=C(C(=O)NC2=O)c2cn(c3ccccc23)CCO1 [Example 5s, Hydrochloride Salt] ?
[reply] 5.10
